Entries and their IC50
Target: Interleukin-23 receptor (Homo sapiens)
Sequence (Q5VWK5 whole entry): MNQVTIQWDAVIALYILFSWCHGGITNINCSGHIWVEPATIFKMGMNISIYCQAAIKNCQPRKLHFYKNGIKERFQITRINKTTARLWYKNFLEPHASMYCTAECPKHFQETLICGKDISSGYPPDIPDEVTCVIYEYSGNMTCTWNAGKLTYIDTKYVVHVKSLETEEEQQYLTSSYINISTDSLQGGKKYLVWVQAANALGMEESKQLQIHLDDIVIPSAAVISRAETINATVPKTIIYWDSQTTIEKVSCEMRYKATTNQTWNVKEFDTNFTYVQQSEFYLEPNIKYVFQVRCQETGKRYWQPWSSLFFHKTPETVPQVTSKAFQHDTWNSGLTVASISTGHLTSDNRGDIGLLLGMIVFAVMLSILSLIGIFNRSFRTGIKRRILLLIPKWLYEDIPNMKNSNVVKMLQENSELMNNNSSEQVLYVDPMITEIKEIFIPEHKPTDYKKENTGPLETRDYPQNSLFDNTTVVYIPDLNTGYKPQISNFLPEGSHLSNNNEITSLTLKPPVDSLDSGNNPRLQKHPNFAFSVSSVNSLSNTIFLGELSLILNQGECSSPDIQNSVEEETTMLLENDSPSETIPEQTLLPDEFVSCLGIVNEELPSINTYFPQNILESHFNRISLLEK
Experiment: Inhibition of interleukin-23 binding to human interleukin-23 receptor incubated for 2 hrs by competitive binding ELISA
Where a SMILES comes first, the peptide text is derived from it.

Worked examples follow.
INSERT INTO measurements (compound, target_desc, measured_metric, result) VALUES
  ('CC(=O)N[C@@H](CS)C(=O)N[C@@H](CCCCN)C(=O)N[C@H](C(=O)N[C@@H](Cc1c[nH]c2ccccc12)C(=O)N[C@@H](CCC(N)=O)C(=O)N[C@@H](CS)C(=O)N[C@@H](Cc1ccc(O)cc1)C(=O)N[C@@H](Cc1c[nH]c2ccccc12)C(=O)N[C@@H](CCCNC(=N)N)C(=O)N[C@H](C(=O)N[C@@H](Cc1ccccc1)C(=O)NCC(=O)NCCOCC(=O)N[C@H](CCCCN)C(N)=O)C(C)C)[C@@H](C)O', 'Interleukin-23 receptor (Homo sapiens)', 'IC50', '40 nM'),
  ('CC(=O)N[C@@H](CS)C(=O)N[C@@H](CCCNC(=N)N)C(=O)N[C@@H](CC(=O)O)C(=O)N[C@@H](Cc1c[nH]c2ccccc12)C(=O)N[C@@H](CCC(N)=O)C(=O)N[C@@H](CS)C(=O)N[C@@H](Cc1ccc(O)cc1)C(=O)N[C@@H](Cc1c[nH]c2ccccc12)C(=O)N(C)[C@@H](CCCNC(=N)N)C(=O)N[C@@H](CCCCN)C(=O)N[C@@H](Cc1ccccc1)C(=O)NCC(=O)NCCOCCC(=O)N[C@H](CCCCN)C(N)=O', 'Interleukin-23 receptor (Homo sapiens)', 'IC50', '> 1000 nM'),
  ('CC(=O)NCCCC[C@H](NC(=O)[C@](C)(CCCCN)NC(=O)[C@H](Cc1ccc2ccccc2c1)NC(=O)[C@H](Cc1ccc(Oc2ccccc2)cc1)NC(=O)[C@@H]1CSCC[C@H](NC(C)=O)C(=O)N[C@@H](CCC(N)=O)C(=O)N[C@@H]([C@@H](C)O)C(=O)N[C@@H](Cc2c[nH]c3ccccc23)C(=O)N[C@@H](CCC(N)=O)C(=O)N1)C(=O)N[C@@H](CC(N)=O)C(=O)NCC(N)=O', 'Interleukin-23 receptor (Homo sapiens)', 'IC50', '100 to 1000 nM'),
  ('CC(C)[C@H](NC(=O)[C@H](Cc1c[nH]c2ccccc12)NC(=O)[C@H](CC(=O)O)NC(=O)[C@H](C)NC(=O)[C@@H](N)CS)C(=O)N[C@@H](CS)C(=O)N[C@@H](Cc1ccc(O)cc1)C(=O)N[C@@H](Cc1cccc2ccccc12)C(=O)N[C@@H](Cc1cnc[nH]1)C(=O)N[C@H](C(=O)N[C@@H](Cc1ccccc1)C(=O)O)[C@@H](C)O', 'Interleukin-23 receptor (Homo sapiens)', 'IC50', '> 1000 nM'),
  ('CC(=O)N[C@H]1CCSC[C@@H](C(=O)N[C@@H](Cc2ccc(OCCN)cc2)C(=O)N[C@@H](Cc2ccc3ccccc3c2)C(=O)N[C@@](C)(CCCCN)C(=O)N[C@@H](CCC(=O)O)C(=O)N[C@@H](CC(N)=O)C(=O)NCC(N)=O)NC(=O)[C@H](CCC(N)=O)NC(=O)[C@H](Cc2c[nH]c3ccccc23)NC(=O)[C@H]([C@@H](C)O)NC(=O)[C@H]([C@@H](C)O)NC1=O', 'Interleukin-23 receptor (Homo sapiens)', 'IC50', '< 10 nM'),
  ('CC(=O)N[C@@H](CS)C(=O)N[C@@H](C)C(=O)N[C@@H](CC(=O)O)C(=O)N[C@@H](Cc1c[nH]c2ccccc12)C(=O)N[C@H](C(=O)N[C@@H](CS)C(=O)N[C@@H](Cc1ccc(O)cc1)C(=O)N[C@@H](Cc1c[nH]c2ccccc12)C(=O)N[C@@H](Cc1cnc[nH]1)C(=O)N[C@@H](CCCNC(=N)N)C(=O)N[C@@H](CS)C(=O)NCC(=O)N[C@@H](Cc1c[nH]c2ccccc12)C(=O)N[C@@H](Cc1c[nH]c2ccccc12)C(=O)NCC(=O)N[C@@H](CS)C(N)=O)C(C)C (Ac-CADWVCYWHRCGWWGC-NH2)', 'Interleukin-23 receptor (Homo sapiens)', 'IC50', '> 1000 nM'),
  ('CC(=O)NCCCC[C@H](NC(=O)[C@](C)(CCCCN)NC(=O)[C@H](Cc1ccc2ccccc2c1)NC(=O)[C@H](Cc1ccc(O)cc1)NC(=O)[C@@H]1CSCC[C@H](NC(C)=O)C(=O)N[C@@H](CCC(N)=O)C(=O)N[C@@H]([C@@H](C)O)C(=O)N[C@@H](Cc2c[nH]c3ccccc23)C(=O)N[C@@H](CCC(N)=O)C(=O)N1)C(=O)N[C@@H](CC(N)=O)C(=O)NCC(=O)NCC(=O)N[C@@H](CCC(=O)O)C(N)=O', 'Interleukin-23 receptor (Homo sapiens)', 'IC50', '25 to 100 nM'),
  ('CC(=O)N[C@@H](CS)C(=O)N[C@@H](CCC(N)=O)C(=O)N[C@H](C(=O)N[C@@H](Cc1c[nH]c2ccccc12)C(=O)N[C@@H](CCC(N)=O)C(=O)N[C@@H](CS)C(=O)N[C@@H](Cc1ccc(O)cc1)C(=O)N[C@@H](Cc1c[nH]c2ccccc12)C(=O)N[C@@H](CCCNC(=N)N)C(=O)N(C)CC(=O)N[C@@H](CC(N)=O)C(=O)NCC(=O)NCCOCC(=O)N[C@H](CCCCN)C(N)=O)[C@@H](C)O', 'Interleukin-23 receptor (Homo sapiens)', 'IC50', '> 1000 nM');

Record CC(C)[C@H](NC(=O)[C@H](Cc1cnc[nH]1)NC(=O)[C@H](Cc1c[nH]c2ccccc12)NC(=O)[C@H](Cc1ccc(O)cc1)NC(=O)[C@H](CS)NC(=O)[C@@H](NC(=O)[C@H](Cc1c[nH]c2ccccc12)NC(=O)[C@H](CC(=O)O)NC(=O)[C@H](CO)NC(=O)[C@@H](N)CS)C(C)C)C(=O)N[C@@H](Cc1ccc(O)cc1)C(=O)NCC(N)=O (H-CSDWVCYWHVYG-NH2) / Interleukin-23 receptor (Homo sapiens), IC50 recorded as 500 to 1000 nM

Record CC(=O)NCCCC[C@H](NC(=O)C(C)(C)NC(=O)[C@H](Cc1ccc2ccccc2c1)NC(=O)[C@H](Cc1ccc(OCCN)cc1)NC(=O)[C@@H]1CSCC[C@H](NC(C)=O)C(=O)N[C@@H](CCC(N)=O)C(=O)N[C@@H]([C@@H](C)O)C(=O)N[C@@H](Cc2c[nH]c3ccccc23)C(=O)N[C@@H](CCC(N)=O)C(=O)N1)C(=O)N[C@@H](CC(N)=O)C(=O)N[C@@H](C)C(N)=O / Interleukin-23 receptor (Homo sapiens), IC50 recorded as < 10 nM
